# Tested on: TNBC cells including MDA-MB468, MDA-MB231, BT20, SUM149, and HCC1937
# Experimental details: CellTiter-GLO viability, triple-negative breast cancer cells
# Format: cell-based
# Experimental parameters: Homo sapiens, 96 h, treated for 4 days
pIC50: −log10 of the molar value.
Property label: pIC50

>  <Smiles code>
OC(c1ccc(-c2ccc(CN3CCN(Cc4ccncc4)CC3)cc2)c(F)c1)(C(F)(F)F)C(F)(F)F

>  <Property label>
pIC50

>  <Result>
5.00 to 6.00

$$$$
>  <Smiles code>
CCS(=O)(=O)c1ccc(CC(=O)Nc2cc(Cl)c(-c3ccccc3OC(F)(F)F)c(Cl)c2)cc1

>  <Property label>
pIC50

>  <Result>
5.00 to 6.00

$$$$
